Below, each entry is listed alongside its reported inhibition at 10 µM.
Measurement target: HSP-90 (Homo sapiens, UniProt P07900)
Construct: fused on or other part: 6-His tag at the C-terminus
Assay name: HSP-90 SPA (scintillation proximity assay) competition binding assay, displacement of tritiated propyl-Geldanamycin
Condition set: read-out: % inhibition @ 10 μM
Note: unit % is implicit; provide only the numeric part.

Recorded inhibition at 10 µM, per entry:
* COc1ccccc1-c1nnc(CN(C)C(=O)c2ccc(O)cc2O)o1 [Example 118] | 57
* O=C(c1cc(-c2ccncn2)ccc1O)N1Cc2ccccc2C1 [Example 32] | 14.2

Ask | // inhibition at 10 µM lookup, key: O=C(c1ccc(O)cc1O)N1CCC(c2ccccc2)C1 (stereo not shown) [Example 93]
Reply | 76.1

Ask | // inhibition at 10 µM lookup, key: CC(C)CN(C)C(=O)c1ccc(O)cc1O [Example 39]
Reply | 52.3

====

Measurement target: HSP-90 (Homo sapiens, UniProt P07900)
Construct: fused on or other part: 6-His tag at the C-terminus
Assay name: HSP-90 SPA (scintillation proximity assay) competition binding assay, displacement of tritiated propyl-Geldanamycin
Condition set: read-out: % inhibition @ 10 μM
Below, each entry is listed alongside its reported inhibition at 10 µM.
Note: unit % is implicit; provide only the numeric part.

Recorded inhibition at 10 µM, per entry:
• O=C(c1ccc(O)cc1O)N1CCC(CCc2cnccn2)CC1 [Example 47] = 80
• O=C(c1ccc(O)cc1O)N1CCC(c2ncccn2)CC1 [Example 86] = 59.9
• Cc1ccc(OCC2CCCN(C(=O)c3ccc(O)cc3O)C2)cn1 (stereo not shown) [Example 60] = 88.1

Ask | // inhibition at 10 µM lookup, key: CCOC(=O)C1CCCN(C(=O)c2ccc(O)cc2O)C1 (stereo not shown) [Example 52]
Reply | 80.2

Ask | // inhibition at 10 µM lookup, key: O=C(c1ccc(O)cc1O)N1CCOC(COc2cccc(Cl)c2)C1 (stereo not shown) [Example 110]
Reply | 82.8

Ask | // inhibition at 10 µM lookup, key: O=C(c1ccc(O)cc1O)N1CCC(O)(c2ccccc2)CC1 [Example 77]
Reply | 79.6

Ask | // inhibition at 10 µM lookup, key: COc1ccc2oc(N3CCN(C(=O)c4ccc(O)cc4O)CC3)nc2c1 [Example 127]
Reply | 60.3

Ask | // inhibition at 10 µM lookup, key: Cc1ccc(O)c(C(=O)N2Cc3ccccc3C2)c1 [Example 30]
Reply | 61.2

Ask | // inhibition at 10 µM lookup, key: O=C(c1ccc(O)cc1O)N1CCC(c2ccccc2)(c2ccccc2)CC1 [Example 54]
Reply | 85.5

Ask | // inhibition at 10 µM lookup, key: COc1ccc(Cc2nnc3n2CCN(C(=O)c2ccc(O)cc2O)CC3)cc1 [Example 116]
Reply | 62.1

Ask | // inhibition at 10 µM lookup, key: COC(=O)C1CCN(C(=O)c2ccc(O)cc2O)C1 (stereo not shown) [Example 94]
Reply | 62.1

Ask | // inhibition at 10 µM lookup, key: Cc1nccc(-c2ccc(O)c(C(=O)N3Cc4ccccc4C3)c2)n1 [Example 35]
Reply | 32.8

Ask | // inhibition at 10 µM lookup, key: O=C(c1ccc(O)cc1O)N1CCC(CCc2cncnc2)CC1 [Example 50]
Reply | 77.7

Ask | // inhibition at 10 µM lookup, key: Nc1nccc(-c2ccc(O)c(C(=O)N3Cc4ccccc4C3)c2)n1 [Example 31]
Reply | 12.9

Ask | // inhibition at 10 µM lookup, key: CN(Cc1ccc(Cl)cc1)C(=O)c1ccc(O)cc1O [Example 106]
Reply | 72.4

Ask | // inhibition at 10 µM lookup, key: COc1ccc(F)c(C2=NOC3(COCCN(C(=O)c4ccc(O)cc4O)C3)C2)c1 (stereo not shown) [Example 132]
Reply | 73.9

====

Measurement target: HSP-90 (Homo sapiens)
Construct: fused on or other part: 6-His tag at the C-terminus
Assay name: HSP-90 SPA (scintillation proximity assay) competition binding assay, displacement of tritiated propyl-Geldanamycin
Condition set: read-out: % inhibition @ 1 μM
Quick rule: inhibition at 1 µM of at least 30% means label 1, below that means label 0.

See these solved cases before continuing.
• O=C(c1ccc(O)cc1O)N1CCc2ccccc2C1 = label 1
• O=C(c1ccc(O)cc1O)N1CCC(CCc2ccccc2)CC1 = label 1
• CN(C(=O)c1ccc(O)cc1O)[C@@H]1CCCC[C@H]1O = label 0
• O=C(c1ccc(O)cc1O)N1CCC(CCc2ccccc2)C1 (stereo not drawn) = label 1

Now take the following molecule into account.
Ask | Textbook exercise: given the entry O=C(c1ccc(O)cc1O)N1CCCC1 , state whether its inhibition at 1 µM is greater than or equal to 30%.
Reply | label 0

====

Measurement target: HSP-90 (Homo sapiens)
Construct: fused on or other part: 6-His tag at the C-terminus
Assay name: HSP-90 SPA (scintillation proximity assay) competition binding assay, displacement of tritiated propyl-Geldanamycin
Condition set: read-out: % inhibition @ 10 μM
Quantity measured: inhibition at 10 µM (%)
Note: unit % is implicit; provide only the numeric part.

Recorded inhibition at 10 µM, per entry:
* CN(Cc1ccc(Oc2ccccc2)cc1)C(=O)c1ccc(O)cc1O [Example 107] | 83.4
* O=C(c1ccc(O)cc1O)N1CCC(O)(c2ccc(Cl)c(C(F)(F)F)c2)CC1 [Example 78] | 68.1
* O=C(c1ccc(O)cc1O)N1CCCC1 [Example 90] | 65.4
* O=C(c1cc(-c2cc[nH]n2)ccc1O)N1Cc2ccccc2C1 [Example 33] | 20.9
* O=C(c1cc(Cl)cc(Cl)c1O)N1Cc2ccccc2C1 [Example 208] | 0
* O=C(c1ccc(O)cc1O)N1CCN(c2nc(-c3ccccc3C(F)(F)F)cc(=O)[nH]2)CC1 [Example 126] | 71

Next compound, inhibition at 10 µM to be filled in.
Ask | // inhibition at 10 µM lookup, key: CCc1nccc(-c2ccc(O)c(C(=O)N3Cc4ccccc4C3)c2)n1 [Example 34]
Reply | 43

====

Measurement target: HSP-90 (Homo sapiens)
Construct: fused on or other part: 6-His tag at the C-terminus
Assay name: HSP-90 SPA (scintillation proximity assay) competition binding assay, displacement of tritiated propyl-Geldanamycin
Condition set: read-out: % inhibition @ 10 μM
Below, each entry is listed alongside its reported inhibition at 10 µM.

Recorded inhibition at 10 µM, per entry:
- CC(C)(C)CC1CCCCN1C(=O)c1ccc(O)cc1O (stereo not drawn): 86.8%
- O=C(c1ccc(CO)cc1)N1Cc2ccccc2C1: 0%

Ask | // inhibition at 10 µM lookup, key: C[C@H](c1ccccc1)N(C)C(=O)c1ccc(O)cc1O
Reply | 35.4%

====

Measurement target: HSP-90 (Homo sapiens)
Construct: fused on or other part: 6-His tag at the C-terminus
Assay name: HSP-90 SPA (scintillation proximity assay) competition binding assay, displacement of tritiated propyl-Geldanamycin
Condition set: read-out: % inhibition @ 10 μM
Class (required): determined from inhibition at 10 µM; valid ranges are 1 (below 60%), 2 (60% to below 80%), 3 (80% or more)

- COc1ccc2cc(O)c(C(=O)N3Cc4ccccc4C3)cc2c1: 1

Ask | Class label required: O=C(c1ccc(O)cc1O)N1CCCCC1c1nccs1 (centres unmarked)
Reply | 2

Ask | Class label required: CC1CCN(C(=O)c2ccc(O)cc2O)CC1
Reply | 3

Ask | Class label required: O=C(c1ccc(O)cc1O)N1CCSC1
Reply | 3

Ask | Class label required: O=C(c1ccc(O)cc1O)N1CCc2nnc(-c3cccc4ccccc34)n2CC1
Reply | 1

Ask | Class label required: CN(C(=O)c1ccc(O)cc1O)[C@H]1CCCC[C@@H]1O
Reply | 1

Ask | Class label required: O=C(c1ccc(O)cc1O)N1CCn2cnnc2C1
Reply | 1

====

Measurement target: HSP-90 (Homo sapiens)
Construct: fused on or other part: 6-His tag at the C-terminus
Assay name: HSP-90 SPA (scintillation proximity assay) competition binding assay, displacement of tritiated propyl-Geldanamycin
Condition set: read-out: % inhibition @ 10 μM
Quick rule: inhibition at 10 µM of at least 80% means yes (1), below that means no (0).

• Cc1ccc(C(=O)N2Cc3ccccc3C2)c(O)c1 = no (0)
• O=C(c1ccc(O)cc1O)N1CCOCC2(CC(c3c(F)cccc3F)=NO2)C1 (stereo not shown) = no (0)
• O=C(c1ccc(O)cc1O)N1CCC(Oc2cccc(Cl)c2)CC1 = no (0)
• O=C(c1ccc(O)cc1O)N1CCOCC2(CC(c3ccc(F)cc3)=NO2)C1 (stereo not shown) = yes (1)
• Cc1ccccc1C1CCCN1C(=O)c1ccc(O)cc1O (stereo not shown) = yes (1)
• O=C(c1ccc(O)cc1O)N1CCOC(COc2ccc(F)cc2Cl)C1 (stereo not shown) = yes (1)

Ask | Textbook exercise: given the entry COCc1nccc(C2CCCN(C(=O)c3ccc(O)cc3O)C2)n1 (stereo not shown) , state whether its inhibition at 10 µM is greater than or equal to 80%.
Reply | no (0)

Ask | Textbook exercise: given the entry O=C(c1ccc(O)cc1O)N1CCCC(CCOc2ccccc2)C1 (stereo not shown) , state whether its inhibition at 10 µM is greater than or equal to 80%.
Reply | yes (1)
